# method_summary: Absorption and fluorescence spectra, extinction coefficient, fluorescence quantum yield
# Assay type: physicochemical
# condition_details: MeOH
property: Absorption energy Eabs Exp
Write the numeric value and follow it with the unit.

Query: Give reported Absorption energy Eabs Exp value for CN1/C(=C/C=C/C=C2/C(=O)c3ccccc3S2(=O)=O)C(C)(C)c2ccccc21 [I-SO, reference compound]
Reply: 2.116 eV

Query: Return the recorded Absorption energy Eabs Exp value; entry: CCN1C(=O)\C(=C/C=C/C=C2/N(C)c3ccccc3C2(C)C)C(O)N(CC)C1=S (centres unmarked) [I-TBA, reference compound]
Reply: 2.127 eV

Query: Find the measured Absorption energy Eabs Exp of `Cn1c([O-])c(/C=C/C=C/c2cc[n+]3c(c2)C(C)(C)c2ccccc2-3)c(=O)n(C)c1=O` and report it.
Reply: 2.120 eV

Query: Quick one: give measured Absorption energy Eabs Exp for `CC1(C)c2ccccc2-[n+]2ccc(/C=C/C=C/C3=C(O)c4ccccc4S3(=O)=O)cc21`
Reply: 2.120 eV

Query: Give the reported value of Absorption energy Eabs Exp for this record: `CCn1c([O-])c(/C=C/C=C/c2cc[n+]3c(c2)C(C)(C)c2ccccc2-3)c(=O)n(CC)c1=S`
Reply: 2.153 eV

* * *

# method_summary: Absorption and fluorescence spectra, extinction coefficient, fluorescence quantum yield
# Format: physicochemical
# condition_details: Table 15, CH2Cl2
property: Observed emission λmax (nm)
Your answer is read as nm, so omit the unit and give the number.

Query: Read off the recorded Observed emission λmax for `CC1(C)c2ccccc2-[n+]2ccc(/C=C/C3=C([O-])c4ccccc4S3(=O)=O)cc21`
Reply: 571

Query: Please look at this molecule and report its Observed emission λmax: `Cn1c([O-])c(/C=C/C=C/c2cc[n+]3c(c2)C(C)(C)c2ccccc2-3)c(=O)n(C)c1=O`
Reply: 664

Query: Let me know recorded Observed emission λmax for `C[n+]1ccc(/C=C/C2=C([O-])c3ccccc3S2(=O)=O)cc1` , thanks.
Reply: 541

Query: Dear colleague, please send me the reported Observed emission λmax for `C[n+]1ccc(/C=C/C=C/C2=C([O-])c3ccccc3S2(=O)=O)cc1` when you can.
Reply: 650

Query: Name the recorded Observed emission λmax of the molecule listed here: `CC1(C)c2ccccc2-[n+]2ccc(/C=C/C=C/C3=C(O)c4ccccc4S3(=O)=O)cc21`
Reply: 681

* * *

# method_summary: Absorption and fluorescence spectra, extinction coefficient, fluorescence quantum yield
# Type: physicochemical
# condition_details: Table 10, DMSO
property: Observed absorption λmax (nm)
The answer is to be given in nm; state only the numeric part.

Query: Respond only with Observed absorption λmax recorded for `C[n+]1ccc(/C=C/C=C/C2=C([O-])c3ccccc3S2(=O)=O)cc1`
Reply: 599

Query: Give Observed absorption λmax for the following compound: `CCn1c([O-])c(/C=C/C=C/c2cc[n+]3c(c2)C(C)(C)c2ccccc2-3)c(=O)n(CC)c1=S`
Reply: 607

Query: Consider the compound `Cn1c([O-])c(/C=C/C=C/c2cc[n+]3c(c2)C(C)(C)c2ccccc2-3)c(=O)n(C)c1=O` . State its measured Observed absorption λmax.
Reply: 617

* * *

# method_summary: Absorption and fluorescence spectra, extinction coefficient, fluorescence quantum yield
# Type: physicochemical
# condition_details: Table 10, MeOH
property: Observed absorption λmax (nm)
// note: answer is a bare numeric in nm

Query: Assign Observed absorption λmax to the following record: CCN1C(=O)\C(=C/C=C/C=C2/N(C)c3ccccc3C2(C)C)C(O)N(CC)C1=S (stereo not shown) [I-TBA, reference compound]
Reply: 583

Query: Return Observed absorption λmax (reported value) for this molecule: `Cn1c([O-])c(/C=C/C=C/c2cc[n+]3c(c2)C(C)(C)c2ccccc2-3)c(=O)n(C)c1=O`
Reply: 585

Query: For the molecule `CCn1c([O-])c(/C=C/C=C/c2cc[n+]3c(c2)C(C)(C)c2ccccc2-3)c(=O)n(CC)c1=S` , report Observed absorption λmax.
Reply: 576

Query: # return recorded Observed absorption λmax for input `CC1(C)c2ccccc2-[n+]2ccc(/C=C/C3=C([O-])c4ccccc4S3(=O)=O)cc21`
Reply: 542

* * *

# method_summary: Absorption and fluorescence spectra, extinction coefficient, fluorescence quantum yield
# Format: physicochemical
# condition_details: Butanol (BuOH)
I'd appreciate it if you could supply Absorbance λmax values for the items below.
Please answer using a numeric value trailed by its unit.

Query: Consider the compound `Cn1c(O)c(/C=C/C=C/c2cc[n+]3c(c2)C(C)(C)c2ccccc2-3)c(=O)n(C)c1=O` and give its recorded Absorbance λmax.
Reply: 615 nm

Query: Quick one: give measured Absorbance λmax for CCN1/C(=C/C=C/C=C2/C(=O)c3ccccc3S2(=O)=O)Sc2ccccc21 [S-SO, reference compound]
Reply: 604 nm

Query: Dear colleague, please send me the reported Absorbance λmax for `Cn1c(O)c(/C=C/C=C(\C#N)c2cc[n+]3c(c2)C(C)(C)c2ccccc2-3)c(=O)n(C)c1=O` when you can.
Reply: 600 nm

Query: Report Absorbance λmax, nothing else, for this compound: CN1/C(=C/C=C/C=C2/C(=O)c3ccccc3S2(=O)=O)C(C)(C)c2ccccc21 [I-SO, reference compound]
Reply: 587 nm

* * *

# method_summary: Absorption and fluorescence spectra, extinction coefficient, fluorescence quantum yield
# Type: physicochemical
# condition_details: Table 10, DMF
property: Observed absorption λmax (nm)
Response body: numeric value in nm, unit text excluded.

Query: Give the value of Observed absorption λmax reported for the following: CN1/C(=C/C=C/C=C2/C(=O)c3ccccc3S2(=O)=O)C(C)(C)c2ccccc21 [I-SO, reference compound]
Reply: 586

Query: Name the recorded Observed absorption λmax of the item `CCn1c([O-])c(/C=C/C=C/c2cc[n+]3c(c2)C(C)(C)c2ccccc2-3)c(=O)n(CC)c1=S` in your answer.
Reply: 616

Query: Please indicate Observed absorption λmax recorded for CCN1C(=O)\C(=C/C=C/C=C2/N(C)c3ccccc3C2(C)C)C(O)N(CC)C1=S (stereo not shown) [I-TBA, reference compound]
Reply: 589

Query: Note down Observed absorption λmax recorded for `C[n+]1ccc(/C=C/C=C/C2=C([O-])c3ccccc3S2(=O)=O)cc1`
Reply: 604

* * *

Give Emission energy Eem Exp for every item shown.
# method_summary: Absorption and fluorescence spectra, extinction coefficient, fluorescence quantum yield
# Format: physicochemical
# condition_details: MeOH
Your answer should be a plain number; it is taken to be in eV.

Query: Using known records, supply Emission energy Eem Exp for CC1(C)c2ccccc2-[n+]2ccc(/C=C/C=C/C3=C(O)c4ccccc4S3(=O)=O)cc21 [AI-SO]
Reply: 1.865

Query: Entry CN1/C(=C/C=C/C=C2/C(=O)c3ccccc3S2(=O)=O)C(C)(C)c2ccccc21 [I-SO, reference compound] needs its Emission energy Eem Exp filled in; supply it.
Reply: 2.016

Query: Provide only the value of recorded Emission energy Eem Exp for Cn1c([O-])c(/C=C/C=C/c2cc[n+]3c(c2)C(C)(C)c2ccccc2-3)c(=O)n(C)c1=O [AI-BA]
Reply: 2.006

* * *

Consider the following compounds; for each one, report its Fluorescence quantum yield Φ.
# method_summary: Absorption and fluorescence spectra, extinction coefficient, fluorescence quantum yield
# Assay type: physicochemical
# condition_details: Methanol (MeOH)
In your answer, state the number alone without any accompanying words.

Query: Please give measured Fluorescence quantum yield Φ of the following entry: `CCN1/C(=C(C#N)/C=C/C=C2/C(=O)c3ccccc3S2(=O)=O)Sc2ccccc21`
Reply: 0.05

Query: Specify reported Fluorescence quantum yield Φ for the compound shown: `Cn1c(O)c(/C=C/C=C(\C#N)c2cc[n+]3c(c2)C(C)(C)c2ccccc2-3)c(=O)n(C)c1=O`
Reply: 0.05

Query: State, in one line, measured Fluorescence quantum yield Φ of CCN1/C(=C/C=C/C=C2/C(=O)c3ccccc3S2(=O)=O)Sc2ccccc21 [S-SO, reference compound]
Reply: 0.05

* * *

I'd appreciate it if you could supply Observed absorption λmax values for the items below.
# method_summary: Absorption and fluorescence spectra, extinction coefficient, fluorescence quantum yield
# Assay type: physicochemical
# condition_details: Table 10, OcOH
Answer in nm, number only, no unit symbol.

Query: Give the measured Observed absorption λmax for `C[n+]1ccc(/C=C/C=C/C2=C([O-])c3ccccc3S2(=O)=O)cc1`
Reply: 612

Query: Answer with reported Observed absorption λmax of CN1/C(=C/C=C/C=C2/C(=O)c3ccccc3S2(=O)=O)C(C)(C)c2ccccc21 [I-SO, reference compound]
Reply: 587

Query: Provide measured Observed absorption λmax value, entry: CCN1C(=O)\C(=C/C=C/C=C2/N(C)c3ccccc3C2(C)C)C(O)N(CC)C1=S (stereo not drawn) [I-TBA, reference compound]
Reply: 590
